assay: AUC ratio in cerebrospinal fluid to plasma in Sprague-Dawley rat at 30 mg/kg, iv; assay type: ADME, organism-based; parameters: dose 30 mg/kg, route intravenous; settings: cerebrospinal fluid and plasma, read-out: Ratio AUC
REPORTED_METRIC: Kp

Field Kp (entry CCOC(=O)C1=C[C@@H](OC(CC)CC)[C@H](NC(C)=O)[C@@H](N)C1 [OSELTAMIVIR] ) reads 0.09

* * *

assay: Cmax ratio in brain to plasma in perfused Sprague-Dawley rat at 30 mg/kg, iv; assay type: ADME, organism-based; design: dose 30 mg/kg, route intravenous; conditions: brain and plasma
REPORTED_METRIC: Kp
Lab note: jot the number down without any unit.

// field: Kp; key: CCC(CC)O[C@@H]1C=C(C(=O)O)C[C@H](N)[C@H]1NC(C)=O [OSELTAMIVIR CARBOXYLATE] ; value = 0.01
